Tested on: Plasmodium falciparum
Assay: Antimalarial activity against Plasmodium falciparum NF54 early gametocytes transfected with luciferase gene incubated for 48 hrs by luciferase reporter gene assay
Type: functional, organism-based
Conditions: NF54, 48 h
readout.kind: IC50 (nM)

Some entries whose results are on file:
CCCCCCCCCCCC[n+]1c2c(n(CC(C)C)c1C)C(=O)c1ccccc1C2=O ... 361
CCCCCCCC[n+]1c2c(n(CC(C)C)c1C)C(=O)c1ccccc1C2=O ... 39
CCCn1c2c([n+](C(C)C)c1C)C(=O)c1ccccc1C2=O ... 162

1: Cc1n(CC(C)C)c2c([n+]1C)C(=O)c1ccccc1C2=O
2: Cc1n(CC(C)C)c2c([n+]1C(C)C)C(=O)c1ccccc1C2=O
-- ask Identify the entry with the larger IC50. Options: 1 and 2 # answer = label of selected item
-- reply 2
(2: 229 nM, 1: 41 nM)

----------
Assay: Redox cycling activity of the compound […] measured after 45 mins by phenol red reagent based horseradish peroxidase coupled assay
Active and inactive are the calls of the source. The calls are words filed in the database; no cut-off is given here.
readout.kind: Activity

Past entries and their recorded results:
CCCn1c(C)nc2c1C(=O)c1ccccc1C2=O ... inactive
CCCCn1c2c([n+](CC)c1C)C(=O)c1ccccc1C2=O ... Active
CCCCn1c(C)nc2c1C(=O)c1ccccc1C2=O ... inactive
CCCn1c2c([n+](C(C)C)c1C)C(=O)c1ccccc1C2=O ... Active
CCn1c(C)nc2c1C(=O)c1ccccc1C2=O ... inactive

-- ask Name the recorded Activity of the item Cc1nc2c(n1C)C(=O)c1ccccc1C2=O in your answer.
-- reply inactive

-- ask Provide one value: measured Activity of CCCn1c2c([n+](CC)c1C)C(=O)c1ccccc1C2=O
-- reply Active

-- ask Look up and report measured Activity for this entry: Cc1nc2c(n1C(C)C)C(=O)c1ccccc1C2=O
-- reply inactive

-- ask Please indicate Activity recorded for Cc1n(C(C)C)c2c([n+]1C(C)C)C(=O)c1ccccc1C2=O.[Br-]
-- reply Active

----------
Test: Cmax in C57BL/6 mouse at 20 mg/kg, po measured upto 24 hrs by LCMS analysis
Assay type: ADME, organism-based
Parameters: dose 20 mg/kg, route oral
Details: in vivo
readout.kind: Cmax (nM)
State just the number; it will be interpreted in nM.

-- ask Identify measured Cmax associated with Cc1n(C(C)C)c2c([n+]1C(C)C)C(=O)c1ccccc1C2=O.[Br-]
-- reply 337

----------
System: Plasmodium falciparum
Experiment: Antimalarial activity against asexual stage of Plasmodium falciparum NF54 assessed as reduction in parasite growth at 1 uM incubated for 96 hrs by SYBR Green I dye-based fluorescence assay relative to control
Format: functional
Set-up: scale not given: the % may be the effect or the level left
readout.kind: Activity

Here's what some known entries look like.
CC1=CC(=O)c2ccccc2C1=O ... 20 - 40%
CCn1c(C)nc2c1C(=O)c1ccccc1C2=O ... <=50%
Cc1nc2c(n1C)C(=O)c1ccccc1C2=O ... <=50%
CCCn1c(C)nc2c1C(=O)c1ccccc1C2=O ... <=50%
O=C1C=CC(=O)C=C1 ... 20 - 40%
CCCCn1c(C)nc2c1C(=O)c1ccccc1C2=O ... <=50%

Read the next record carefully.
-- ask Output Activity of Cc1nc2c(n1C(C)C)C(=O)c1ccccc1C2=O
-- reply <=50%

----------
Test: Volume of distribution in C57BL/6 mouse at 2 mg/kg, iv measured upto 24 hrs by LCMS analysis
Assay type: ADME, organism-based
Settings: in vivo
readout.kind: Vd (L/kg)
Entry rule: numbers only, all in L/kg.

-- ask Please list Vd recorded for the compound Cc1n(C(C)C)c2c([n+]1C(C)C)C(=O)c1ccccc1C2=O.[Br-]
-- reply 8.3

----------
Experiment: Tmax in C57BL/6 mouse at 20 mg/kg, po measured upto 24 hrs by LCMS analysis
Type: ADME, organism-based
Conditions: in vivo
readout.kind: Tmax (h)
Lab book: enter the figure in h, no units written.

-- ask Dear colleague, please send me the reported Tmax for Cc1n(C(C)C)c2c([n+]1C(C)C)C(=O)c1ccccc1C2=O.[Br-] when you can.
-- reply 2

----------
Experiment: Half life in C57BL/6 mouse at 20 mg/kg, po measured upto 24 hrs by LCMS analysis
Type: ADME, organism-based
Conditions: in vivo
readout.kind: half-life (h)
Could you give me the number in h? Just the number is fine.

-- ask Specify reported half-life for the compound shown: Cc1n(C(C)C)c2c([n+]1C(C)C)C(=O)c1ccccc1C2=O.[Br-]
-- reply 11.3

----------
Test: Oral bioavailability in C57BL/6 mouse at 20 mg/kg measured upto 24 hrs by LCMS analysis
Type: ADME, organism-based
Conditions: in vivo
readout.kind: bioavailability (%)
The response must be a number in % with no trailing unit.

-- ask Report measured bioavailability; entry is Cc1n(C(C)C)c2c([n+]1C(C)C)C(=O)c1ccccc1C2=O.[Br-]
-- reply 5

----------
Recorded pIC50, one value per entry.
Test system: Plasmodium falciparum
Assay: Antimalarial activity against asexual stage of Plasmodium falciparum 3D7 infected in erythrocytes assessed as reduction in parasite growth incubated for 48 hrs under hypoxic condition by Hoechst 33342 staining based flow cytometry
Assay type: functional, organism-based
Settings: 3D7, 48 h
Remember the convention: pIC50 equals -log10 of concentration in molar.

Record excerpt, results attached:
Cc1n(C2CC2)c2c([n+]1C1CC1)C(=O)c1ccccc1C2=O ... 7.38
CCn1c2c([n+](CC)c1C)C(=O)c1ccccc1C2=O ... 8.22
Cc1n(C)c2c([n+]1C1CC1)C(=O)c1ccccc1C2=O ... 7.59
C[C@H]1[C@H](OC(=O)CCC(=O)O)O[C@@H]2O[C@@]3(C)CC[C@H]4[C@H](C)CC[C@@H]1[C@@]24OO3 [ARTESUNATE] ... 7.64
CCC[n+]1c2c(n(C)c1C)C(=O)c1ccccc1C2=O ... 8.32
Cc1n(C(C)C)c2c([n+]1C1CC1)C(=O)c1ccccc1C2=O ... 7.80
CCCC[n+]1c2c(n(C(C)C)c1C)C(=O)c1ccccc1C2=O ... 7.94
CCCn1c2c([n+](C(C)C)c1C)C(=O)c1ccccc1C2=O ... 8.40
CCCCn1c2c([n+](CC)c1C)C(=O)c1ccccc1C2=O ... 8.38
CCCn1c2c([n+](C3CC3)c1C)C(=O)c1ccccc1C2=O ... 6.48

-- ask Give pIC50 for CC[n+]1c2c(n(C(C)C)c1C)C(=O)c1ccccc1C2=O
-- reply 7.21

-- ask Return the recorded pIC50 value; entry: CCCn1c2c([n+](CC)c1C)C(=O)c1ccccc1C2=O
-- reply 8.43

-- ask Provide one value: measured pIC50 of Cc1n(C(C)C)c2c([n+]1C(C)C)C(=O)c1ccccc1C2=O.[Br-]
-- reply 8.19

-- ask Determine its reported pIC50: COCC[n+]1c2c(n(Cc3cnccn3)c1C)C(=O)c1ccccc1C2=O [SEPANTRONIUM BROMIDE]
-- reply 7.41

-- ask Provide pIC50 value for the following compound: CCCn1c2c([n+](CCC)c1C)C(=O)c1ccccc1C2=O
-- reply 7.57

-- ask Supply recorded pIC50 for CCCCn1c2c([n+](C3CC3)c1C)C(=O)c1ccccc1C2=O here.
-- reply 6.74

-- ask Name the recorded pIC50 of the item CCn1c2c([n+](C3CC3)c1C)C(=O)c1ccccc1C2=O in your answer.
-- reply 7.18

-- ask Return pIC50 for the following compound: CCCC[n+]1c2c(n(CCC)c1C)C(=O)c1ccccc1C2=O
-- reply 7.73

-- ask Determine its reported pIC50: CCCCn1c2c([n+](CCCC)c1C)C(=O)c1ccccc1C2=O
-- reply 7.30

-- ask Specify measured pIC50 for CCCC[n+]1c2c(n(C)c1C)C(=O)c1ccccc1C2=O .
-- reply 8.37

-- ask Identify measured pIC50 corresponding to Cc1n(C)c2c([n+]1C)C(=O)c1ccccc1C2=O
-- reply 7.65

-- ask // fetch pIC50 given entry O=C1C(O)=C([C@H]2CC[C@H](c3ccc(Cl)cc3)CC2)C(=O)c2ccccc21
-- reply 8.55

-- ask Give reported pIC50 value for Cc1n(C)c2c([n+]1C(C)C)C(=O)c1ccccc1C2=O
-- reply 8.32

-- ask Report measured pIC50; entry is CC[n+]1c2c(n(C)c1C)C(=O)c1ccccc1C2=O
-- reply 8.08

----------
Assay: Solubility of compound at pH 7.4 measured after 24 hrs
Type: physicochemical
Details: buffer
readout.kind: solubility at 24 h

-- ask Determine its reported solubility at 24 h: Cc1n(C(C)C)c2c([n+]1C(C)C)C(=O)c1ccccc1C2=O.[Br-]
-- reply > 100 µM

----------
System: Plasmodium falciparum
Experiment: Antimalarial activity against Plasmodium falciparum TM90C2B incubated for 48 hrs by [3H]-hypoxanthine incorporation assay
Type: functional, organism-based
readout.kind: IC50 (nM)
Output spec: scalar in nM, unitless text.

Worked cases, answers included:
C[C@H]1[C@H](OC(=O)CCC(=O)O)O[C@@H]2O[C@@]3(C)CC[C@H]4[C@H](C)CC[C@@H]1[C@@]24OO3 [ARTESUNATE] ... 2.7
CCCn1c2c([n+](CC)c1C)C(=O)c1ccccc1C2=O ... 2.2
CCCCn1c2c([n+](CC)c1C)C(=O)c1ccccc1C2=O ... 1.4
CCCn1c2c([n+](C(C)C)c1C)C(=O)c1ccccc1C2=O ... 1.8
Cc1n(C(C)C)c2c([n+]1C(C)C)C(=O)c1ccccc1C2=O.[Br-] ... 1.6

// switching to the query compound
-- ask Report IC50 for O=C1C(O)=C([C@H]2CC[C@H](c3ccc(Cl)cc3)CC2)C(=O)c2ccccc21
-- reply 11500
